Reference source for all entries: PubChem BioAssay AID1996

Conditions: buffer; pH 7.4; 200.0 µM
For each of the compounds below, state its log10 of solubility kinetic.
The base-10 logarithm of solubility kinetic, taken with solubility kinetic in µg/mL, is what appears here.

[[record]]
compound = "O=C(CCCCC(=O)Nc1ccc(F)cc1F)Nc1ccc(F)cc1F"
reading = 0.64

[[record]]
compound = "O=S(=O)(NCCC1CC1(Cl)Cl)c1ccccc1 (configuration not stated)"
reading = 1.60

[[record]]
compound = "CC(C)(CN1CCc2ccccc2C1)NS(=O)(=O)c1ccccc1"
reading = 1.54

[[record]]
compound = "COc1cnc(-c2ccccn2)nc1Oc1cccc(C(F)(F)F)c1"
reading = 1.57


# map each compound to its log10 of solubility kinetic
1. O=c1c(NCCc2ccc(Cl)cc2)c(-c2ccccc2)c1=O
2. COc1ccc(NC(=O)C2CCCN(C(=O)Nc3ccc(F)cc3)C2)cc1OC (configuration not stated)
3. FCCCOc1ccc(CN2CCN(c3ccccc3F)CC2)cc1

Reply |
[0.41, 1.12, 1.29]
